# experimental-target: succinate-ubiquinone redutase (SDH) of mitochondria from the 3884 strain (SDHB P225H substitution) (Botrytis cinerea, UniProt A0A384J5E4+D2IH01+D2IH03, P225H)
# procedure-details: SDH activity of extracted mitochondria by DCPIP reduction at 595 nm, P225H mutant
# Type: biochemical
# Design: key: Classification A pI50 increase or stable compared to WT; Classification B pI50 decrease inferior or equal to 0.6 compared to WT; Classification C pI50 decrease superior to 0.6 compared to WT
# condition-summary: pI50 on P225H 3884 mitochondria compared to WT
endpoint: Classification

INSERT INTO measurements (compound, assay_value) VALUES
  ('Cn1nc(C(F)F)c(C(=O)N(Cc2ccccc2C2CC2)C2CC2)c1F [Compound A2]', 'A'),
  ('Cn1nc(C(F)F)c(C(=O)N(Cc2c(C(F)(F)F)ccc(Cl)c2F)C2CC2)c1F [Compound A18]', 'A'),
  ('Cn1nc(C(F)F)c(C(=O)N(Cc2cc(Cl)ccc2C(F)(F)F)C2CC2)c1F [Compound A15]', 'A');

----------
# experimental-target: succinate-ubiquinone redutase (SDH) of mitochondria from Bo47 WT strain (Botrytis cinerea, UniProt A0A384J5E4+D2IH01+D2IH03)
# Sequence (A0A384K456 entry or part of it): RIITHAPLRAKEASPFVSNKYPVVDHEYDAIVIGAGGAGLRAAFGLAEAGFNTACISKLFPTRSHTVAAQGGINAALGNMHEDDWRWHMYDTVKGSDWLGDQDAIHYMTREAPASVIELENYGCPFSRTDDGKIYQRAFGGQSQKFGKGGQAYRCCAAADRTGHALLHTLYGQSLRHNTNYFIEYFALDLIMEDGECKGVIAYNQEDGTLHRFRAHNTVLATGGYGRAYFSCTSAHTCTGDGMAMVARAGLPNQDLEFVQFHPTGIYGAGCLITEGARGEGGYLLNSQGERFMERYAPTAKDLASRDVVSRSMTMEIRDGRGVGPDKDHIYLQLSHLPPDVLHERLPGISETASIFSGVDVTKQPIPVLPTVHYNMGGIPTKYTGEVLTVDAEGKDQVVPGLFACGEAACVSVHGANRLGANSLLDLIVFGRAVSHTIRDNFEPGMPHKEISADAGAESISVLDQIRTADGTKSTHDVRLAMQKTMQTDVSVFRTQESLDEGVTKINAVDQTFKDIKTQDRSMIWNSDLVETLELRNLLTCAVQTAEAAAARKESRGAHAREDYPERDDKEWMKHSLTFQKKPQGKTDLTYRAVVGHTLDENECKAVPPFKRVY
# Sequence (D2IH03 entry or part of it): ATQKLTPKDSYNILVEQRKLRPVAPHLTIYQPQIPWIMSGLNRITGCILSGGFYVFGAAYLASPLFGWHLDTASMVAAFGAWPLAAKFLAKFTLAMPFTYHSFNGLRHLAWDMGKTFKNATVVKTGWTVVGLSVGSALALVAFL
# Sequence (A0A384J5E4 entry or part of it): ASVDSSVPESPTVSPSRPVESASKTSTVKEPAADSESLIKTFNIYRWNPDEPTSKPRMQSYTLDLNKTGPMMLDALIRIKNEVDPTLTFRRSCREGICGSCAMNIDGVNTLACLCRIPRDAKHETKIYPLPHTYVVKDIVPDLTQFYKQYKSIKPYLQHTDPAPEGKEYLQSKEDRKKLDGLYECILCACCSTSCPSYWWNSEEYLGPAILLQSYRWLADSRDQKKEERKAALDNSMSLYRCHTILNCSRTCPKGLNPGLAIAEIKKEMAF
# Sequence (D2IH01 entry or part of it): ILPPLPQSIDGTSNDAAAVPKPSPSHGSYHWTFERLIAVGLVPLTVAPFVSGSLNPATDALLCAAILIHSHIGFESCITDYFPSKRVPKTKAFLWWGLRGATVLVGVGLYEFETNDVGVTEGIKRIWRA
# procedure-details: SDH activity of extracted mitochondria by DCPIP reduction at 595 nm, wild type
# condition-summary: PI50 Bo47 (Wild type), 20 min preincubation, -log 10 of concentration inhibiting DCPIP reduction by 50%
pIC50: −log10 of the molar value.
Below, each entry is listed alongside its reported pIC50.
endpoint: pIC50

INSERT INTO measurements (molecule, assay_value) VALUES
  ('Cc1ccc(C(F)(F)F)c(CN(C(=O)c2c(C(F)F)nn(C)c2F)C2CC2)c1', 7.70),
  ('Cn1nc(C(F)F)c(C(=O)N(Cc2ccccc2[Si](C)(C)C)C2CC2)c1F', 8.40),
  ('Cn1nc(C(F)F)c(C(=O)N(Cc2cc(F)ccc2C2CC2)C2CC2)c1F', 8.10),
  ('CC(C)c1ccccc1CN(C(=O)c1c(C(F)F)nn(C)c1F)C1CC1', 7.90),
  ('Cn1nc(C(F)F)c(C(=O)N(Cc2c(Cl)cccc2C(F)(F)F)C2CC2)c1F', 8.00),
  ('CCc1ccc(F)cc1CN(C(=O)c1c(C(F)F)nn(C)c1F)C1CC1', 8.10),
  ('CC(C)c1ccc(Cl)cc1CN(C(=O)c1c(C(F)F)nn(C)c1F)C1CC1', 8.20),
  ('O=C(Nc1ccccc1-c1ccc(Cl)cc1)c1cccnc1Cl [Boscalid, reference compound]', 7.40),
  ('Cn1nc(C(F)F)c(C(=O)N(Cc2ccccc2C2CC2)C2CC2)c1F', 8.20),
  ('CC(C)CC(C)c1sccc1NC(=O)c1cn(C)nc1C(F)(F)F (centres unmarked) [Penthiopyrad, reference compound]', 7.80),
  ('CC(C)c1cccc(F)c1CN(C(=O)c1c(C(F)F)nn(C)c1F)C1CC1', 8.40),
  ('Cn1nc(C(F)F)c(C(=O)N(Cc2cc(Cl)ccc2C(F)(F)F)C2CC2)c1F', 7.80),
  ('Cn1nc(C(F)F)c(C(=O)N(Cc2cc(F)ccc2C2CCCC2)C2CC2)c1F', 8.30),
  ('CC(C)c1ccccc1CN(C(=S)c1c(C(F)F)nn(C)c1F)C1CC1', 6.20);

----------
# experimental-target: succinate-ubiquinone redutase (SDH) of mitochondria from the 3884 strain (SDHB P225H substitution) (Botrytis cinerea, UniProt A0A384J5E4+D2IH01+D2IH03, P225H)
# procedure-details: SDH activity of extracted mitochondria by DCPIP reduction at 595 nm, P225H mutant
# Assay type: biochemical
# condition-summary: mitochondria of 3884 strain, 20 min preincubation, -log 10 of concentration inhibiting DCPIP reduction by 50%; read-out: PI50 P225H3884 (converted)
endpoint: IC50 (nM)

INSERT INTO assay_data (compound, assay_value) VALUES
  ('Cn1nc(C(F)F)c(C(=O)N(Cc2cc(F)ccc2C2CC2)C2CC2)c1F', 3.16),
  ('Cc1ccc(C(F)(F)F)c(CN(C(=O)c2c(C(F)F)nn(C)c2F)C2CC2)c1', 5.01),
  ('CC(C)c1ccccc1CN(C(=S)c1c(C(F)F)nn(C)c1F)C1CC1', 31.6),
  ('Cc1ccc(C(C)C)c(CN(C(=O)c2c(C(F)F)nn(C)c2F)C2CC2)c1', 1),
  ('CCc1ccc(F)cc1CN(C(=O)c1c(C(F)F)nn(C)c1F)C1CC1', 2.51),
  ('Cn1nc(C(F)F)c(C(=O)N(Cc2cc(F)ccc2C2CCCC2)C2CC2)c1F', 3.16),
  ('Cn1nc(C(F)F)c(C(=O)N(Cc2ccccc2[Si](C)(C)C)C2CC2)c1F', 3.16),
  ('CC(C)c1ccccc1CN(C(=O)c1c(C(F)F)nn(C)c1F)C1CC1', 3.16),
  ('O=C(Nc1ccccc1-c1ccc(Cl)cc1)c1cccnc1Cl [Boscalid, reference compound]', 5010),
  ('Cn1nc(C(F)F)c(C(=O)N(Cc2cc(Cl)ccc2C(F)(F)F)C2CC2)c1F', 6.31),
  ('CC(C)c1ccc(F)cc1CN(C(=O)c1c(C(F)F)nn(C)c1F)C1CC1', 1.58),
  ('Cn1nc(C(F)F)c(C(=O)N(Cc2ccccc2C2CC2)C2CC2)c1F', 2.51),
  ('CC(C)c1cccc(F)c1CN(C(=O)c1c(C(F)F)nn(C)c1F)C1CC1', 6.31),
  ('Cc1ccc(C(C)(C)C)c(CN(C(=O)c2c(C(F)F)nn(C)c2F)C2CC2)c1', 3.16),
  ('CC(C)CC(C)c1sccc1NC(=O)c1cn(C)nc1C(F)(F)F (stereo not drawn) [Penthiopyrad, reference compound]', 501);

----------
# experimental-target: succinate-ubiquinone redutase (SDH) of mitochondria from Bo47 WT strain (Botrytis cinerea, UniProt A0A384J5E4+D2IH01+D2IH03)
# procedure-details: SDH activity of extracted mitochondria by DCPIP reduction at 595 nm, wild type
# condition-summary: PI50 Bo47 (Wild type), 20 min preincubation, -log 10 of concentration inhibiting DCPIP reduction by 50%
pIC50: −log10 of the molar value.
Below, each entry is listed alongside its reported pIC50.
endpoint: pIC50

INSERT INTO results (compound, assay_value) VALUES
  ('Cc1ccc(C(C)C)c(CN(C(=O)c2c(C(F)F)nn(C)c2F)C2CC2)c1 [Compound A12]', 8.40),
  ('Cc1ccc(C(C)(C)C)c(CN(C(=O)c2c(C(F)F)nn(C)c2F)C2CC2)c1 [Compound A14]', 8.30),
  ('Cn1nc(C(F)F)c(C(=O)N(Cc2c(C(F)(F)F)ccc(Cl)c2F)C2CC2)c1F [Compound A18]', 7.80),
  ('CC(C)c1ccc(F)cc1CN(C(=O)c1c(C(F)F)nn(C)c1F)C1CC1 [Compound A7]', 8.40);
